Taken from ChEMBL document CHEMBL1201862.

- System: OVCAR-8
- methodNotes: NCI tumour cell line growth inhibition, 48 h
Activity calls are given as the source filed them. Rule as the data show it: active = GI50 up to about 1.1 µM and inactive = higher.
Response enum: active, inactive

QUERY: Hey, what did the test say about c1cc(CSP234N5CCN2CCN3CCN4CC5)cc(CSP234N5CCN2CCN3CCN4CC5)c1 ?
RESULT: inactive

QUERY: Recorded test outcome, item Cc1cccc(N2C(=O)C3c4[nH]c5ccccc5c4C4CCC(C(C)(C)C)CC4C3C2=O)c1C (stereo unspecified)
RESULT: inactive

QUERY: # lookup: test call for CN(C)CCNC(=O)c1ccc(Cl)c2cc3ccccc3nc12
RESULT: active

QUERY: Short answer needed: outcome of this test for CS(=O)(=O)Nc1ccc2c(c1)N(S(C)(=O)=O)CC2CCl (stereo unspecified) ?
RESULT: inactive

QUERY: Identify the outcome logged in this assay for the molecule shown: COc1ccc2c(N=[N+]=[N-])c(-c3ccccc3)c(=O)oc2c1
RESULT: inactive

QUERY: // outcome(item) with item = CSc1nncc(-c2cc3c(c(SC)n2)CCC3)n1
RESULT: inactive

QUERY: Per the assay record, what outcome was assigned to NC(=O)N/N=C1\C[C@H]2CCCC[C@H]2C1 ?
RESULT: inactive

QUERY: Which outcome was entered for the molecule CC(C)(CO)NC(=O)Nc1c(C(F)(F)F)cc(-c2ccccc2)[nH]c1=O in this test?
RESULT: inactive

QUERY: For CC1=NNC(=O)C1C1CC(c2c[nH]c3ccccc23)=NN=C1Cl (stereo unspecified) , which call appears in the assay record?
RESULT: inactive

QUERY: Just curious, what result did CCCNC(=O)c1cc(NC(=O)c2cc(NC(=O)/C=C/c3ccccc3)c(OC)c(OC)c2)c(OC)c(OC)c1 get here?
RESULT: inactive

QUERY: What did this assay record as the result for Cc1ccc2c(c1C)C(=O)C1(C2)Cc2ccc3c(c2C1=O)CCC3 (stereo unspecified) ?
RESULT: inactive

QUERY: Which outcome was assigned to COc1ccc(OC)c2c1-c1nnnn1CCC2(C)C in this test?
RESULT: inactive

QUERY: Given Cc1ccc([N+](=O)[O-])cc1S(=O)(=O)Nc1ccc(C2=NOC(c3ccccc3O)C2)cc1 (stereo unspecified) , state the outcome it received in this test.
RESULT: inactive

QUERY: How did this test come out for CC(=O)Nc1ccc2c3c(cc(O)c2c1)N(C(=O)CCCCC(=O)N1CC(CCl)c2c1cc(O)c1cc(NC(C)=O)ccc21)CC3CCl (stereo unspecified) ?
RESULT: active

QUERY: Query: recorded result category for Nc1ncnc2c1nnn2C1CCC(CP(=O)(O)O)C1 (stereo unspecified) in this test
RESULT: inactive

QUERY: Entry CC(C(=O)O)c1cnn(-c2ccccc2)c1-n1cccc1 (stereo unspecified) : call = ?
RESULT: inactive

QUERY: Hi, do you know how COC(=O)[C@]12CSC[C@H]1C[C@H](c1cccc3ccccc13)N2 came out in this test?
RESULT: inactive

QUERY: # fetch the recorded call for Cc1cc(N(CCOS(C)(=O)=O)CCOS(C)(=O)=O)ccc1/C=N/c1ccc(-c2csc(-c3ccccc3)n2)c(Cl)c1 here
RESULT: inactive

QUERY: Called result for C[C@@H](CCO)OC1OC(COC(=O)C(C)(C)C)C(OC(=O)C(C)(C)C)C(OC(=O)C(C)(C)C)C1OC(=O)C(C)(C)C (stereo partly specified)
RESULT: inactive

QUERY: What did the test return for CCCCC(C(=O)C(=O)Nc1ccc(C)cc1C)C(=O)C(C)C (stereo unspecified) ?
RESULT: inactive

QUERY: Recorded test call requested for COc1cc2c(cc1C)NC(=O)/C2=C/c1cccnc1
RESULT: inactive

====

- System: UO-31
- methodNotes: NCI tumour cell line growth inhibition, 48 h
Active and inactive are the calls of the source. Rule as the data show it: active = GI50 up to about 1.1 µM and inactive = higher.
Outcomes you can answer with include only these: active, inactive

QUERY: Can you look up the reported call for COc1cc(NCc2ccc3nc(N)nc(N)c3c2C)cc(OC)c1OC for me?
RESULT: active

QUERY: Recorded call for OC(c1ccc(Br)cc1)(c1cccs1)C1CC1 (stereo not given) ?
RESULT: inactive

QUERY: Each molecule tested received a call. Report the one for CN1CCC2(CC1)C(=O)N(NC(N)=O)C(=O)C2c1ccccc1 (stereo not given) .
RESULT: inactive

QUERY: Recorded test call requested for O=[N+]([O-])c1ccc(N2N=C(c3ccc4ccccc4c3O)CC2c2ccc(Cl)cc2Cl)c([N+](=O)[O-])c1 (stereo not given)
RESULT: inactive

QUERY: For CCOP(=O)(OCC)/C(=C\N1C(=O)CC(=O)NC1=S)C(=O)OC , which call appears in the assay record?
RESULT: inactive

====

Would you kindly list GI50 for each of these compounds?
- System: HCT-116
- methodNotes: NCI tumour cell line growth inhibition, 48 h
Activity calls are given as the source filed them. No stated cut-off is given here; in the data, active = GI50 up to about 1.1 µM and inactive = higher.

response.value for CCOC(=O)Nn1c(C)nnc1CC#N (field: GI50) = > 100 µM (inactive)

GI50 for O=C1c2cc([N+](=O)[O-])cnc2S(=O)(=O)N1c1ccc(Br)cc1 is > 100 µM (inactive)

Reported GI50 for COC1CC(OC2CCC3(C)C(CCC45CCC(C6=CC(=O)OC6)C(C)(CCC43)C5=O)C2)OC(C)C1O (stereo unspecified) was 35.1 µM (inactive)

COc1ccc(CNc2cc(OC)c(OC)c(OC)c2)cc1 yielded GI50 of 3.37 µM (inactive)

Reported GI50 ( CCOP(=O)(OCC)C(C)(C)OC(=O)NC(F)(F)F ) = > 100 µM (inactive)

GI50 reading for COC(=O)C(CCSc1ccccc1)C(=O)OC : > 100 µM (inactive)

====

- Test system: Hs-578T
- methodNotes: NCI tumour cell line growth inhibition, 48 h
Calls of active or inactive are those of the source. No stated cut-off is given here; in the data, active = GI50 up to about 1.1 µM and inactive = higher.
endpointLabel: GI50

According to the records, this molecule CC(=O)NC(NCCN)(c1ccccc1)c1ccccc1 displays GI50 of > 100 µM (inactive)

Measured GI50 of c1ccc2[nH]c(C3CCCCO3)nc2c1 (stereo unspecified) : > 100 µM (inactive)

Looking up Cc1cccc(N2C(=O)C3c4[nH]c5ccccc5c4C4CCC(C(C)(C)C)CC4C3C2=O)c1C (stereo unspecified) , I see its GI50 listed as 25.8 µM (inactive)

// field: GI50; key: COc1ccccc1/C=C1\Sc2scc(-c3cccc([N+](=O)[O-])c3)[n+]2C1=O ; value = 18.5 µM (inactive)

Per the record, Cc1n(-c2ccccc2)c2c([n+]1Cc1ccc([N+](=O)[O-])cc1)C(=O)c1ccccc1C2=O has GI50 of 1.78 µM (inactive)

The reported GI50 of the molecule CCOC(=O)N1N(c2ccccc2)C(=O)C1(c1ccccc1)c1ccccc1 was > 100 µM (inactive)

====

Kindly state GI50 for each of the entries shown.
- System: SF-268
- methodNotes: NCI tumour cell line growth inhibition, 48 h
The source made the active and inactive calls. No stated cut-off is given here; in the data, active = GI50 up to about 1.1 µM and inactive = higher.

Reported GI50 ( COc1ccc(/C=N/N=C(\N)NO)c(OC)c1C ) = 15.4 µM (inactive)

// sample O=C(O)C1CC2CC(=O)C1C2 (centres undefined) , its GI50 was > 100 µM (inactive)

In plain terms, CN1C(=O)N(c2ccccc2)C2(CCN(CC3COc4ccccc4O3)CC2)C1=O (centres undefined) has a documented GI50 of > 100 µM (inactive)

Item: O=C(CCCn1ccnc1[N+](=O)[O-])NCCn1ccnc1[N+](=O)[O-] | GI50: > 100 µM (inactive)

Sure, the documented GI50 for COC(OC)C(O)C1OC=CC1n1cnc2c(N)ncnc21 (centres undefined) is > 100 µM (inactive)

# compound Cc1cc(O)c2c(c1)C(C1OC(CO)C(O)C(O)C1O)c1cc(O)cc(O)c1C2=O (centres undefined) ; its GI50 = > 100 µM (inactive)

Measured GI50, O=C1CCC(O)=C1O : > 100 µM (inactive)

For record Nc1ccc2c(SCC(=O)Nc3ccccc3-c3ccccc3NC(=O)CSc3c4ccccc4nc4cc(N)ccc34)c3ccccc3nc2c1 the listed GI50 is 37.1 µM (inactive)

In plain terms, CCCCCCCCCCCCCCCc1ccc(OCC(O)CO)cc1 (centres undefined) has a documented GI50 of 27.9 µM (inactive)

For record NNC(=O)C1(NC(=O)c2ccccc2)C(c2ccccc2)C(c2ccccc2)=NN1c1ccccc1 (centres undefined) the listed GI50 is 66.7 µM (inactive)

Field GI50 (entry CCOC(=O)/C(C#N)=C\c1ccc(N(CCC(=O)O)CCC(=O)O)c(I)c1 ) reads > 10 µM (inactive)

Looking up O=S(=O)(c1cc(Cl)ccc1Cl)N1CCN(c2cccc(Cl)c2)CC1 , I see its GI50 listed as > 100 µM (inactive)

Summary for this compound, CCOP(=O)(OCC)C(C)(C)OC(=O)NC(F)(F)F : GI50 is > 100 µM (inactive)

Entry N#Cc1sc2c(c1OC(=O)c1cccs1)c(=O)n(-c1ccccc1)c(=S)n2-c1ccccc1 — recorded GI50 = 30.1 µM (inactive)

Note to self: GI50 recorded for NC(=O)N/N=C1\C[C@H]2CCCC[C@H]2C1 was > 100 µM (inactive)

Notebook: COc1ccc(/C=C2\CCC(C)C3=C(c4ccc(OC)c(OC)c4)C(C#N)=C(N)OC32)cc1OC (centres undefined) , GI50 read as 9.77 µM (inactive)

get_value(item= CNC(=O)c1ccccc1[S+]1c2cccc3cccc(c23)C(=O)N1C (centres undefined) , readout=GI50) returns > 100 µM (inactive)

Measured GI50 of CCOC(=O)/C(=C/c1ccccc1)N(CC)CC : > 100 µM (inactive)

# compound CCOP(=O)(OCC)C(Cc1ccccc1)N=C(c1ccccc1)c1ccccc1 (centres undefined) ; its GI50 = 17.8 µM (inactive)

Notebook: CCOC(=O)c1nc2ccc(C(F)(F)F)cc2nc1NCc1ccc(F)cc1 , GI50 read as 11.5 µM (inactive)

Looking up Cc1cc2cc3c(cc2c(-c2ccc([N+](=O)[O-])cc2)n1)OCO3 , I see its GI50 listed as 34.6 µM (inactive)

Recorded GI50 (compound O=C1C(Cl)=C(Cl)C(=O)C2=C1C1c3ccccc3C2c2ccccc21 ): > 100 µM (inactive)

The reported GI50 of the compound CCCN(C(=O)c1c(Cl)nnc(Cl)c1C(=O)c1cc(Cl)nnc1Cl)c1cc(Cl)nnc1Cl was 4.35 µM (inactive)

Value of GI50 reported for the compound CCOC(=O)c1nc(-c2ccccc2)oc1OCC is > 100 µM (inactive)

Form: compound = O=C1CCN2CCC(=O)c3c2c(cc2ccccc32)N1 ; GI50 = > 100 µM (inactive)

Item: C=C[C@@]1(C)CC(=O)[C@]2(O)[C@@]3(C)[C@@H](O)CCC(C)(C)[C@@H]3[C@H](O)[C@@H](OC(C)=O)[C@@]2(C)O1 | GI50: > 100 µM (inactive)

N#Cc1c(NC(=S)NCc2ccccc2)sc2c1CCN(N1CCc3c(sc(NC(=S)NCc4ccccc4)c3C#N)C1)C2 has a reported GI50 of > 100 µM (inactive)

The recorded GI50 for entry COc1ccc(C2Oc3c(cccc3OC)C=C2[N+](=O)[O-])cc1 (centres undefined) equals 2.69 µM (inactive)

Item: Clc1ccc(Cc2nc3cc(Cl)ccc3o2)cc1 | GI50: 43 µM (inactive)

Kindly note the recorded GI50 for Cc1ccc(Cc2c(=O)[nH]nc3ccccc23)cc1 , which is > 100 µM (inactive)

// sample O=C(O)c1ccccc1-c1ccccc1C(=O)c1ccccc1 , its GI50 was > 100 µM (inactive)

Lab book: GI50 of O=C(N/C(=C\c1ccc([N+](=O)[O-])cc1)c1nc2ccccc2s1)c1ccccc1 noted as 20.1 µM (inactive)

compound COc1ccc(Nc2c(C#N)c3n(c4ccccc24)c2ccccc2[n+]3C)cc1OC , GI50 observed: 1.76 µM (inactive)

GI50 recorded for this compound, COc1cc2c3c(c1OC)-c1ccccc1C(C(OC(C)=O)c1ccccc1)C3N(C)CC2 (centres undefined) , is 93.8 µM (inactive)

Per the records, this compound ( S=C1CC(c2ccccc2)Sc2ccc(Cl)cc2N1 (centres undefined) ) has GI50 equal to 37.9 µM (inactive)

Sample O=C(N/N=C(COc1ccccc1)\N=C\c1ccncc1)c1ccncc1 ; GI50 observed: > 100 µM (inactive)

Summary for this compound, O=C(O)Cc1ccc(Oc2nc3ccccc3nc2-c2ccccc2)cc1 : GI50 is 44.5 µM (inactive)

Lookup result for OC(c1ccc(Br)cc1)(c1cccs1)C1CC1 (centres undefined) ; measured GI50: 20.7 µM (inactive)

For this compound ( O=Cc1ccc(OCc2cccc(COc3ccc(/C=N\Nc4ccc([N+](=O)[O-])cc4[N+](=O)[O-])cc3)n2)cc1 ), measured GI50 is > 100 µM (inactive)

# GI50 (compound: CCCCCCCCCCCC(=O)OCC1OC(OC)C(NC(=O)N(CCCl)N=O)C(O)C1O (centres undefined) ) is 2.32 µM (inactive)

Measured GI50, O=C1[C@@H](O)[C@@H]2CCCC[C@@]23CCCN13 : > 100 µM (inactive)

Entry under test: c1ccc(NNC2=NCCN2)cc1 . Its GI50 was > 100 µM (inactive)

Value of measured GI50 for the entry C[C@@H](CCO)OC1OC(COC(=O)C(C)(C)C)C(OC(=O)C(C)(C)C)C(OC(=O)C(C)(C)C)C1OC(=O)C(C)(C)C (some centres undefined) : 50.6 µM (inactive)

Input CC1(C)C2C=CC1(C)C1(CC2)OCCO1 (centres undefined) . Output GI50: > 100 µM (inactive)
